Assay: Metabolic stability in human liver microsomes assessed as compound remaining preincubated for 5 mins in presence of NADPH regeneration system followed by HLM addition measured after 240 mins by LC-MS analysis
Assay type: ADME, Microsome
Details: read-out: Stabilty
ENDPOINT: remaining at 4 h (%)

STRUCTURE_AS_SMILES	remaining at 4 h, %
NC(=O)[C@H](CCC1CCCCC1)NC(=O)c1ccc(CNC(=O)c2cnn(-c3ccccc3)c2N)cc1	66.9
Nc1c(C(=O)NCc2ccc(C(=O)N[C@@H](CCC3CCCCC3)C(=O)Nc3ccc(F)cc3)cc2)cnn1-c1ccccc1	83.5

a: CCNC(=O)[C@H](CCC1CCCCC1)NC(=O)c1ccc(CNC(=O)c2cnn(-c3ccccc3)c2N)cc1
b: Nc1c(C(=O)NCc2ccc(C(=O)N[C@@H](CCC3CCCCC3)C(=O)NCc3ccncc3)cc2)cnn1-c1ccccc1
Given the listed records, identify the one among a and b with higher remaining at 4 h. Indicate your choice by writing its label.
b
